method: Tmax in Sprague-Dawley rat at 5 mg/kg, po
Assay type: ADME, organism-based
Parameters: dose 5 mg/kg, route oral
test_parameters: in vivo
measured_quantity: Tmax

Lookup: Provide Tmax value for the following molecule: C=C(CNN)c1ccccc1.Cl
Found: 30 min

###

Exercise: for every item that follows, state its recorded IC50.
target_or_system: Amine oxidase [flavin-containing] A (Homo sapiens)
Sequence (P21397 whole entry): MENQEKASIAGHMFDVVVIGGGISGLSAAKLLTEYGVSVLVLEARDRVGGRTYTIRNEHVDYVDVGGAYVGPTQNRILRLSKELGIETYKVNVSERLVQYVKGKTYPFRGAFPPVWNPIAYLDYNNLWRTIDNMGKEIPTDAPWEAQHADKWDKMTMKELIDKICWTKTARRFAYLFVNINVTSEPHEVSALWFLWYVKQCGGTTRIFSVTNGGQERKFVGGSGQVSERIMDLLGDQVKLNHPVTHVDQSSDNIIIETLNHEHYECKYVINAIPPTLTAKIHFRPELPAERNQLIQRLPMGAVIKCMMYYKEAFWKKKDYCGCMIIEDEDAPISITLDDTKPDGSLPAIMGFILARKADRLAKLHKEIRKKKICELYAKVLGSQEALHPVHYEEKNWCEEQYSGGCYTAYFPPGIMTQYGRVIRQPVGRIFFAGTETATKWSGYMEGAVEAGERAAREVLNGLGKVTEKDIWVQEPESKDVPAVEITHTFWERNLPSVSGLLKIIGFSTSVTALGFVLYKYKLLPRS
method: Inhibition of recombinant human MAO-A
Write the answer as a number in µM, unit excluded.

Lookup: Provide IC50 value for the following compound: C=C(CNN)c1ccccc1C
Found: 2

Lookup: Provide IC50 value for the following compound: C=C(CNN)c1ccccc1.Cl
Found: 1.3

Lookup: Provide IC50 value for the following compound: C=C(CNN)c1ccc(F)cc1
Found: 6

###

method: AUC in Sprague-Dawley rat at 5 mg/kg, po
Type: ADME, organism-based
Design: dose 5 mg/kg, route oral
test_parameters: plasma
measured_quantity: AUC (ng·h/mL)
Write the answer as a number in ng·h/mL, unit excluded.

Lookup: Provide AUC value for the following compound: C=C(CNN)c1ccccc1.Cl
Found: 1340

###

target_or_system: Amine oxidase [copper-containing] 3 (Rattus norvegicus, UniProt O08590)
Sequence (O08590 whole entry): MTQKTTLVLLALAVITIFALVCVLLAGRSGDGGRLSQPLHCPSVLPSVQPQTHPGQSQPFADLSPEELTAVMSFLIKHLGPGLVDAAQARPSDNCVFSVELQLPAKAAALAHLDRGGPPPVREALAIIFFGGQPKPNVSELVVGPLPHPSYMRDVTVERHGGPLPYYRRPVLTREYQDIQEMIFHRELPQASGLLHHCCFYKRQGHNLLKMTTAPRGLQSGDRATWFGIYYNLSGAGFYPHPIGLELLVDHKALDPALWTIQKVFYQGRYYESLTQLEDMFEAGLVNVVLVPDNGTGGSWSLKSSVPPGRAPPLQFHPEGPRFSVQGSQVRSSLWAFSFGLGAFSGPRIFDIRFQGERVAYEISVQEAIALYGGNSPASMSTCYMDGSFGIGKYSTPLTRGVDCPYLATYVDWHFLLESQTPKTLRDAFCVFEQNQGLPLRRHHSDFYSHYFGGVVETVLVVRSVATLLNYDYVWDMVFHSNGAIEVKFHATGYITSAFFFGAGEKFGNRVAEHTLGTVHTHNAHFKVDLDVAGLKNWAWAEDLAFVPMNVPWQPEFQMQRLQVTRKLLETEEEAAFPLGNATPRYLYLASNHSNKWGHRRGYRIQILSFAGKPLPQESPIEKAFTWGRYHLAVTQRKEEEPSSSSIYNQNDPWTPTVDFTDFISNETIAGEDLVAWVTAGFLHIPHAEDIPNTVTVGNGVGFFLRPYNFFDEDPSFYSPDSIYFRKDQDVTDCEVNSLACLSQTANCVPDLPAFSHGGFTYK
measured_quantity: pIC50
Quick note: pIC50 means taking -log10 of the concentration in moles per liter.

Lookup: Provide pIC50 value for the following compound: C=C(CN(N)CC)c1ccc(F)cc1
Found: 6.20

Lookup: Provide pIC50 value for the following compound: C=C(CNN)c1ccccc1.Cl
Found: 8.70

Lookup: Provide pIC50 value for the following compound: C=C(CNNC)c1ccc(F)cc1
Found: 8.77

Lookup: Provide pIC50 value for the following compound: C=C(CN(C)N)c1ccc(F)cc1
Found: 6.62

Lookup: Provide pIC50 value for the following compound: C=C(CNN)c1ccccc1C
Found: 8.40
